Target: Gamma-secretase
Assay: Inhibition of beta amyloid protein 40 production
Record form. Attribute: IC50. Fill in for each entry.
Answers are plain numbers, in nM.

Solved cases below.
COc1cccc(N(C(C)c2ccccc2OCCCN2CCCC2)S(=O)(=O)c2ccc(Cl)cc2)c1 (stereo unspecified)	530
CC(c1ccccc1OCCCN1CCCC1)N(c1ccccc1)S(=O)(=O)c1ccc(Br)cc1 (stereo unspecified)	1900
CC(c1ccccc1OCCCN1CCCC1)N(c1cccc(C(=O)c2ccccc2)c1)S(=O)(=O)c1ccc(Cl)cc1 (stereo unspecified)	3000
CC(c1ccccc1OCCCN1CCCC1)N(c1ccccc1)S(=O)(=O)c1ccc(F)cc1 (stereo unspecified)	350

State recorded IC50 for all listed compounds.
1. CC(c1ccccc1OCCCN1CCCC1)N(c1ccc(Cl)cc1)S(=O)(=O)c1ccc(Cl)cc1 (stereo unspecified)
2. CC(c1ccccc1OCCCN1CCCC1)N(c1ccc(C(=O)c2ccccc2)cc1)S(=O)(=O)c1ccc(Cl)cc1 (stereo unspecified)

1. 1300
2. 3200

State recorded IC50 for all listed compounds.
1. CC(c1ccc(C(=O)c2ccccc2)cc1OCCCN1CCCC1)N(c1cc(F)c(OCC(=O)NCCCCCNC(=O)CCCC[C@@H]2SC[C@@H]3NC(=O)N[C@@H]32)cc1F)S(=O)(=O)c1ccc(Cl)cc1 (stereo partly specified)
2. CCN(CC)CCCOc1ccccc1C(C)N(c1cc(F)ccc1F)S(=O)(=O)c1ccc(Cl)cc1 (stereo unspecified)
3. CC(c1ccccc1OCCCN1CCCC1)N(c1ccccc1)S(=O)(=O)c1ccc(Cl)cc1 (stereo unspecified)

1. 10
2. 1000
3. 10

State recorded IC50 for all listed compounds.
1. CC(c1ccc(C(=O)c2ccccc2)cc1OCCCN1CCCC1)N(c1ccccc1)S(=O)(=O)c1ccc(Cl)cc1 (stereo unspecified)
2. CC(c1ccccc1OCCCN1CCCC1)N(c1ccccc1)S(=O)(=O)c1ccc(C(F)(F)F)cc1 (stereo unspecified)
3. CC(c1ccc(C(=O)c2ccccc2)cc1OCCCN1CCCC1)N(c1cc(F)ccc1F)S(=O)(=O)c1ccc(Cl)cc1 (stereo unspecified)
4. CC(c1ccc(C(=O)c2ccccc2)cc1OCCCN1CCCC1)N(c1cc(F)c(OCC(=O)NCCCCCCCCNC(=O)CCCC[C@@H]2SC[C@@H]3NC(=O)N[C@@H]32)cc1F)S(=O)(=O)c1ccc(Cl)cc1 (stereo partly specified)
5. COc1ccc(N(C(C)c2ccccc2OCCCN2CCCC2)S(=O)(=O)c2ccc(Cl)cc2)cc1 (stereo unspecified)
6. CC(c1ccccc1OCCCN1CCCC1)N(c1ccccc1C(=O)c1ccccc1)S(=O)(=O)c1ccc(Cl)cc1 (stereo unspecified)
7. CC(c1ccccc1OCCCN1CCCC1)N(c1cc(F)ccc1F)S(=O)(=O)c1ccc(Cl)cc1 (stereo unspecified)

1. 17000
2. 400
3. 130
4. 20
5. 1100
6. 1200
7. 2000

###

Biological target: Gamma-secretase
Assay: Inhibition of beta amyloid protein 40 production
Assay type: protein-complex assay
PROPERTY_LABEL: pIC50
Answers are plain numbers, as −log10 of the molar value.

CC(c1ccccc1OCCCN1CCOCC1)N(c1cc(F)ccc1F)S(=O)(=O)c1ccc(Cl)cc1 (stereo not drawn)	5.36
CC(c1ccccc1OCCCN1CCCCC1)N(c1cc(F)ccc1F)S(=O)(=O)c1ccc(Cl)cc1 (stereo not drawn)	5.68

State recorded pIC50 for all listed compounds.
1. CC(c1ccccc1OCCCN1CCCC1)N(c1ccccc1)S(=O)(=O)c1ccccc1 (stereo not drawn)
2. CC(c1ccc(C(=O)c2ccc(COC(=O)NCCCCCCCCNC(=O)CCCC[C@@H]3SC[C@@H]4NC(=O)N[C@@H]43)cc2)cc1OCCCN1CCCC1)N(c1cc(F)ccc1F)S(=O)(=O)c1ccc(Cl)cc1 (stereo partly drawn)
3. COc1ccccc1N(C(C)c1ccccc1OCCCN1CCCC1)S(=O)(=O)c1ccc(Cl)cc1 (stereo not drawn)
4. CC(c1ccc(C(=O)c2ccc(COC(=O)NCCCCCNC(=O)CCCC[C@@H]3SC[C@@H]4NC(=O)N[C@@H]43)cc2)cc1OCCCN1CCCC1)N(c1cc(F)ccc1F)S(=O)(=O)c1ccc(Cl)cc1 (stereo partly drawn)
5. CC(c1ccccc1OCCCN1CCCC1)N(c1ccccc1Cl)S(=O)(=O)c1ccc(Cl)cc1 (stereo not drawn)
6. CC(c1ccccc1OCCCN1CCCC1)N(c1cccc(Cl)c1)S(=O)(=O)c1ccc(Cl)cc1 (stereo not drawn)

6.16
8.21
6.33
8.54
6.31
6.28

###

Target: Gamma-secretase (Homo sapiens) (UniProt Q96BI3+Q9NZ42+Q8WW43+P49768+Q92542+P49810)
Experiment: Inhibition of beta amyloid protein 40 production relative to 4-chloro-N-phenyl-N-(1-(2-(3-(pyrrolidin-1-yl)propoxy)phenyl)ethyl)benzenesulfonamide
Assay type: protein-complex assay
PROPERTY_LABEL: Ratio IC50
Numbers only.

Solved cases below.
CC(c1ccccc1OCCCN1CCCC1)N(c1ccccc1)S(=O)(=O)c1ccc(F)cc1 (centres undefined)	0.03
CC(c1ccccc1OCCCN1CCCC1)N(c1ccccc1)S(=O)(=O)c1ccc(Br)cc1 (centres undefined)	0.005
CC(c1ccccc1OCCCN1CCCC1)N(c1ccccc1)S(=O)(=O)c1ccc(C(F)(F)F)cc1 (centres undefined)	0.03

// below: Ratio IC50 requested for another compound
GET /value?item= CC(c1ccccc1OCCCN1CCCC1)N(c1ccccc1)S(=O)(=O)c1ccccc1 (centres undefined) &field=Ratio IC50 returns 0.01

###

Target: Gamma-secretase (Homo sapiens) (UniProt Q96BI3+Q9NZ42+Q8WW43+P49768+Q92542+P49810)
Test: Inhibition of beta amyloid protein 40 production relative to 4-chloro-N-(2,5-difluorophenyl)-N-(1-(2-(3-(pyrrolidin-1-yl)propoxy)phenyl)ethyl)benzenesulfonamide
Assay type: protein-complex assay
PROPERTY_LABEL: Ratio IC50
Give bare numbers.

CC(c1ccc(C(=O)c2ccccc2)cc1OCCCN1CCCC1)N(c1cc(F)c(OCC(=O)NCCCCCNC(=O)CCCC[C@@H]2SC[C@@H]3NC(=O)N[C@@H]32)cc1F)S(=O)(=O)c1ccc(Cl)cc1 (stereo partly specified)	200
CC(c1ccccc1OCCCN1CCCC1)N(c1ccc(Cl)cc1)S(=O)(=O)c1ccc(Cl)cc1 (stereo unspecified)	1.5
CC(c1ccc(C(=O)c2ccc(COC(=O)NCCCCCCCCNC(=O)CCCC[C@@H]3SC[C@@H]4NC(=O)N[C@@H]43)cc2)cc1OCCCN1CCCC1)N(c1cc(F)ccc1F)S(=O)(=O)c1ccc(Cl)cc1 (stereo partly specified)	328
CC(c1ccc(C(=O)c2ccccc2)cc1OCCCN1CCCC1)N(c1cc(F)ccc1F)S(=O)(=O)c1ccc(Cl)cc1 (stereo unspecified)	15
COc1ccccc1N(C(C)c1ccccc1OCCCN1CCCC1)S(=O)(=O)c1ccc(Cl)cc1 (stereo unspecified)	4.3
CC(c1ccc(C(=O)c2ccc(COC(=O)NCCCCCNC(=O)CCCC[C@@H]3SC[C@@H]4NC(=O)N[C@@H]43)cc2)cc1OCCCN1CCCC1)N(c1cc(F)ccc1F)S(=O)(=O)c1ccc(Cl)cc1 (stereo partly specified)	690
CC(c1ccccc1OCCCN1CCCC1)N(c1ccccc1)S(=O)(=O)c1ccc(Cl)cc1 (stereo unspecified)	200
CC(c1ccccc1OCCCN1CCCC1)N(c1cccc(C(=O)c2ccccc2)c1)S(=O)(=O)c1ccc(Cl)cc1 (stereo unspecified)	0.7
CC(c1ccc(C(=O)c2ccccc2)cc1OCCCN1CCCC1)N(c1cc(F)c(OCC(=O)NCCCCCCCCNC(=O)CCCC[C@@H]2SC[C@@H]3NC(=O)N[C@@H]32)cc1F)S(=O)(=O)c1ccc(Cl)cc1 (stereo partly specified)	100
COc1ccc(N(C(C)c2ccccc2OCCCN2CCCC2)S(=O)(=O)c2ccc(Cl)cc2)cc1 (stereo unspecified)	1.8

State recorded Ratio IC50 for all listed compounds.
1. CC(c1ccccc1OCCCN1CCCC1)N(c1ccc(C(=O)c2ccccc2)cc1)S(=O)(=O)c1ccc(Cl)cc1 (stereo unspecified)
2. CC(c1ccccc1OCCCN1CCCC1)N(c1cccc(Cl)c1)S(=O)(=O)c1ccc(Cl)cc1 (stereo unspecified)
3. CC(c1ccccc1OCCCN1CCCC1)N(c1ccccc1C(=O)c1ccccc1)S(=O)(=O)c1ccc(Cl)cc1 (stereo unspecified)
4. COc1cccc(N(C(C)c2ccccc2OCCCN2CCCC2)S(=O)(=O)c2ccc(Cl)cc2)c1 (stereo unspecified)
5. CC(c1ccc(C(=O)c2ccccc2)cc1OCCCN1CCCC1)N(c1ccccc1)S(=O)(=O)c1ccc(Cl)cc1 (stereo unspecified)
6. CC(c1ccccc1OCCCN1CCCC1)N(c1ccccc1Cl)S(=O)(=O)c1ccc(Cl)cc1 (stereo unspecified)

1: 0.6; 2: 3.8; 3: 1.7; 4: 3.8; 5: 0.1; 6: 4
